Where do the numbers come from? From patent US20110160180A1.

- tgt: Human CB1 receptor (hCB1) (Homo sapiens, UniProt P21554)
- Sequence (P21554 whole entry): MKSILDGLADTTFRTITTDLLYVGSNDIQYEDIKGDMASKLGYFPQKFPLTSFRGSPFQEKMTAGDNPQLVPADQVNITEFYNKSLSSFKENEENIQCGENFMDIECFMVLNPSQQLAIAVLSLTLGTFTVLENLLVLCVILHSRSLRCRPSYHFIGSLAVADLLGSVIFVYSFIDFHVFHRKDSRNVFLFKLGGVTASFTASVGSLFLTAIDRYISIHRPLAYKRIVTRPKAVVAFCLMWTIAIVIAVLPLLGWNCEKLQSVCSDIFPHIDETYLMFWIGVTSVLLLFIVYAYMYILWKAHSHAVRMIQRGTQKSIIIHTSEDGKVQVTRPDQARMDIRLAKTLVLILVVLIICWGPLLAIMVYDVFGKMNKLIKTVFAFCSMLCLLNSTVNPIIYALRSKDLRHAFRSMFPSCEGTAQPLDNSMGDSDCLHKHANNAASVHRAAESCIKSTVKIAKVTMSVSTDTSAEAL
- test protocol: hCB1 GTPγS binding
- Assay type: biochemical
- condition description: hCB1 membranes, GTPg35S binding; maximal stimulated binding determined with 10 μM Win 55,212-2
Kindly supply the reported hCB1 EMax values for the records listed here.
Write the number in % without appending the unit.

Please give the measured hCB1 EMax for this molecule: CCN(CC(=O)NCCO)C(=O)c1ccc2c(c1)c1c(n2S(=O)(=O)CC)CCC(C2CCOCC2)C1 (centres unmarked)
115

Please give the measured hCB1 EMax for this molecule: CN(CC(=O)NC1CC1)C(=O)c1ccc2c(c1)c1c(n2C)CCC(C2CCOCC2)C1 (centres unmarked)
107

Please give the measured hCB1 EMax for this molecule: CNC(=O)CCCN(C)C(=O)c1ccc2c(c1)c1c(n2C)CCC(C2CCOCC2)C1 (centres unmarked)
121

Please give the measured hCB1 EMax for this molecule: Cn1c2c(c3cc(C(=O)N4CC[C@H](C(=O)NCCF)C4)ccc31)CC(C1CCOCC1)CC2 (some centres unmarked)
113

Please give the measured hCB1 EMax for this molecule: Cn1c2c(c3cc(C(=O)N4CC[C@H](C(=O)NC5CC5)C4)ccc31)CC(C1CCOCC1)CC2 (some centres unmarked)
127
